Would you mind telling me the reported pEC50 of each entry?
# target under test: human α2C‐adrenoceptor (Homo sapiens, UniProt P18825)
# Sequence (P18825 whole entry): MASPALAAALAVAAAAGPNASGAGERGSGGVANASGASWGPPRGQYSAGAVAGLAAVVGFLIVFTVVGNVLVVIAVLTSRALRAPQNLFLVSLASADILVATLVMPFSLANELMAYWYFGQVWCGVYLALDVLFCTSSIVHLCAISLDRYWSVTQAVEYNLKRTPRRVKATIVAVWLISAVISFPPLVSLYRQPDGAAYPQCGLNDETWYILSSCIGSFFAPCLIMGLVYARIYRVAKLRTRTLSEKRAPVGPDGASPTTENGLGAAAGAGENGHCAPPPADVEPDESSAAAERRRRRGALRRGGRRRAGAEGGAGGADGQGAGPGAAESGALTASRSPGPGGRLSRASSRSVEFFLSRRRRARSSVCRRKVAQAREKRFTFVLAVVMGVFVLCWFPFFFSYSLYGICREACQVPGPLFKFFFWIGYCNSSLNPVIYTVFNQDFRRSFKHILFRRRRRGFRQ
# test method notes: ERK1/2‐phosphorylation in CHO‐α2C cells
# Type: cell-based
# Set-up: expressed in transfected cells; host or cells: CHO-K1 with CRE-SPAP reporter
Answers are plain numbers, as −log10 of the molar value.

1. CNCC(O)c1ccc(O)cc1 (stereo not shown) [Synephrine] | 5.49
2. CN[C@@H](C)[C@H](O)c1ccccc1 | 4.48
3. C=CCc1ccccc1OC(C)C1=NCCN1 (stereo not shown) | 7.93

Moving on to another molecule below.
Input: Name the recorded pEC50 of the molecule listed here: Cc1cccc(C)c1N=C1NCCCS1
Output: 7.14

* * *

Reported Log IC50 (Gi), CRE‐SPAP (with forskolin) for target or system human α2A‐adrenoceptor (Homo sapiens), by entry.
Numbers only.

1. Nc1cc(Cl)c(N=C2NCCN2)c(Cl)c1 [Para‐amino‐clonidine] | −8.74

Moving on to another molecule below.
Input: Name the recorded Log IC50 (Gi), CRE‐SPAP (with forskolin) of the molecule listed here: CC(N)C(O)c1ccc(O)c(O)c1 (stereo not drawn) [α‐methylnorepinephrine]
Output: −6.47

* * *

# target under test: human α2C‐adrenoceptor (Homo sapiens)
# test method notes: 3H‐rauwolscine whole cell binding in CHO‐α2C cells
# Design: expressed in transfected cells; host or cells: CHO-K1 with CRE-SPAP reporter
# experimental setup: read-out: IC50 in binding, CHO‐α2C
assay endpoint: IC50

Input: Name the recorded IC50 of the molecule listed here: COc1ccc(CC(C)NCC(O)c2ccc(O)c(NC=O)c2)cc1 (stereo not shown)
Output: > 100 µM

* * *

# target under test: human α2C‐adrenoceptor (Homo sapiens, UniProt P18825)
# test method notes: ERK1/2‐phosphorylation in CHO‐α2C cells
# Format: cell-based
# Parameters: expressed in transfected cells; host or cells: CHO-K1 with CRE-SPAP reporter
# experimental setup: CHO‐α2C cells, maximum response compared to 10 μM PDBu, mean ± SEM
Would you mind telling me the reported % 10 μM PDBu, ERK1/2‐phosphorylation of each entry?
Numbers only, in %.

1. C1=C(c2cnc[nH]2)c2ccsc2CC1 [RWJ52353] | 143.5
2. Clc1ccc2nsnc2c1NC1=NCCN1 [Tizanidine] | 133.6
3. Cc1sc(C)c2c1CCC=C2c1cnc[nH]1.O=C(O)/C=C\C(=O)O [T‐CG 1000] | 87.5
4. COc1ccc(OC)c(C(O)C(C)N)c1 (centres unmarked) [Methoxamine] | 131.0
5. CS(=O)(=O)Nc1c(O)ccc2c1CCCC2C1=NCCN1 (centres unmarked) [A61603] | 149.2
6. C[C@H](N)[C@H](O)c1cccc(O)c1 [Metaraminol] | 158.8
7. CCNCC(O)c1cccc(O)c1 (centres unmarked) [Etilefrine] | 182.2
8. C1COC(NC(C2CC2)C2CC2)=N1 [Rilmenidine] | 125.2
9. CCc1cccc(CC)c1NC1=NCCN1 [ST‐91] | 154.0
10. c1ccc(C2CC2)c(OCC2=NCCN2)c1 [Cirazoline] | 139.1

Input: Name the recorded % 10 μM PDBu, ERK1/2‐phosphorylation of the molecule listed here: c1ccc2c(CC3=NCCN3)cccc2c1 [Naphazoline]
Output: 157.8

* * *

Would you mind telling me the reported pIC50 of each entry?
# target under test: human α2A‐adrenoceptor (Homo sapiens)
# Sequence (P08913 whole entry): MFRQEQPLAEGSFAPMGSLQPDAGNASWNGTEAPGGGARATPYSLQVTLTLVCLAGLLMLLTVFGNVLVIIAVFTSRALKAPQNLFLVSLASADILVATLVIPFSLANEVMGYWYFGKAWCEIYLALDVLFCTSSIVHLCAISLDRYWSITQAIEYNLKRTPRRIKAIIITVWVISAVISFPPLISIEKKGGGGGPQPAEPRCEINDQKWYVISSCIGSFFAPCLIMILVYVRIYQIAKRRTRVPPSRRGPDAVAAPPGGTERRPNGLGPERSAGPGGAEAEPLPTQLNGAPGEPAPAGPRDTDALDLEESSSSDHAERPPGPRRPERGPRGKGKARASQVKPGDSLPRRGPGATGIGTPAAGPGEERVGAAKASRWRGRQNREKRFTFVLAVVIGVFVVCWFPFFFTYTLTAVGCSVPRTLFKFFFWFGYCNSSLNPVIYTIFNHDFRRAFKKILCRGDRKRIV
# experimental setup: Log IC50 (Gi), CRE‐SPAP (with forskolin), CHO‐α2A (cell line 1, 5830 fmol/mg protein), 3 μM forskolin
Numbers only, as −log10 of the molar value.

// below: answered compounds
1. c1ccc2c(c1)CCCC2C1=NCCN1 (stereo not shown) [Tetrahydrozoline] | 7.67
2. c1ccc2c(CC3=NCCN3)cccc2c1 | 7.79
3. CCNCC(O)c1cccc(O)c1 (stereo not shown) | 4.32

Input: Name the recorded pIC50 of the compound listed here: C1COC(NC(C2CC2)C2CC2)=N1
Output: 6.77

* * *

Reported Log EC50 (Gs), CRE‐SPAP (without forskolin) for target or system human α2A‐adrenoceptor (Homo sapiens, UniProt P08913), by entry.
assay endpoint: Log EC50 (Gs), CRE‐SPAP (without forskolin)

1. CC(Cc1ccc(O)cc1)NCC(O)c1cc(O)cc(O)c1 (stereo not drawn) | No response
2. Cc1cccc(C)c1N=C1NCCCS1 | No response
3. CN[C@@H](C)[C@H](O)c1ccccc1 | No response

* * *

# target under test: human α2C‐adrenoceptor (Homo sapiens, UniProt P18825)
# experimental setup: Log IC50 (Gi), CRE‐SPAP (with forskolin), CHO‐α2C cells, inhibition of 3 μM forskolin‐stimulated CRE‐SPAP production; given as negative log IC50, mean ± SEM
assay endpoint: IC50
Enter the number, and then the unit.

1) c1ccc(C2CC2)c(OCC2=NCCN2)c1 [Cirazoline] | 331 nM
2) COc1ccc(OC)c(C(O)C(C)N)c1 (stereo not shown) [Methoxamine] | 11000 nM
3) Clc1ccc2nsnc2c1NC1=NCCN1 [Tizanidine] | 302 nM
4) c1ccc2c(c1)CCCC2C1=NCCN1 (stereo not shown) [Tetrahydrozoline] | 339 nM
5) CCNCC(O)c1cccc(O)c1 (stereo not shown) [Etilefrine] | 12000 nM
6) c1ccc2c(CC3=NCCN3)cccc2c1 [Naphazoline] | 75.9 nM

Moving on to another molecule below.
Input: Name the recorded IC50 of the molecule listed here: C1COC(NC(C2CC2)C2CC2)=N1 [Rilmenidine]
Output: 468 nM

* * *

Would you mind telling me the reported % inhibition, CRE‐SPAP (with forskolin) of each entry?
# target under test: human α2A‐adrenoceptor (Homo sapiens)
# experimental setup: CHO‐α2A (cell line 1), % inhibition from the 3 μM forskolin control, inhibition only
Enter the number, and then the unit.

// below: answered molecules
1. NCC(O)c1ccc(O)cc1 (stereo not shown) | 98.1 ± 5.7%
2. CCNCC(O)c1cccc(O)c1 (stereo not shown) | 101.3 ± 4.6%

Please report % inhibition, CRE‐SPAP (with forskolin) for every entry that follows.
1. c1ccc2c(c1)CCCC2C1=NCCN1 (stereo not shown) [Tetrahydrozoline]
2. c1ccc(C2CC2)c(OCC2=NCCN2)c1
3. c1ccc2c(CC3=NCCN3)cccc2c1
4. C[C@H](N)[C@H](O)c1cccc(O)c1
5. C1COC(NC(C2CC2)C2CC2)=N1

Output:
["69.3 ± 7.2%", "43.6 ± 4.4%", "83.1 ± 3.6%", "87.0 ± 1.3%", "94.2 ± 3.6%"]

* * *

# target under test: human α2C‐adrenoceptor (Homo sapiens)
# test method notes: 3H‐rauwolscine whole cell binding in CHO‐α2C cells
# Parameters: expressed in transfected cells; host or cells: CHO-K1 with CRE-SPAP reporter
# experimental setup: CHO‐α2C cells, 3H‐rauwolscine whole cell binding; given as negative log KD; mean only (SEM in Table 4); read-out: Log KD (converted)
One threshold, 30 µM, splits the recorded Kd values: lower ones are Yes, equal or higher ones are No.

Some entries whose results are on file:
1. C1COC(NC(C2CC2)C2CC2)=N1 | Yes
2. c1ccc(C2CC2)c(OCC2=NCCN2)c1 | Yes
3. C[C@H](N)[C@H](O)c1cccc(O)c1 | Yes
4. NC[C@H](O)c1ccc(O)c(O)c1 | No
5. CC(CCc1ccc(O)cc1)NCCc1ccc(O)c(O)c1 (centres unmarked) | Yes
6. CCNCC(O)c1cccc(O)c1 (centres unmarked) | No
7. c1ccc2c(CC3=NCCN3)cccc2c1 | Yes
8. c1ccc2c(c1)CCCC2C1=NCCN1 (centres unmarked) [Tetrahydrozoline] | Yes
9. OCc1cc(C(O)CNCCCCCCOCCCCc2ccccc2)ccc1O (centres unmarked) | Yes
10. Clc1ccc2nsnc2c1NC1=NCCN1 | Yes

--- query ---
Input: State whether 30 µM exceeds Kd recorded for COc1ccc(OC)c(C(O)C(C)N)c1 (centres unmarked) .
Output: No

* * *

# target under test: UniProt P18825
# test method notes: 3H‐rauwolscine whole cell binding in CHO‐α2C cells
# Design: expressed in transfected cells; host or cells: CHO-K1 with CRE-SPAP reporter
# experimental setup: CHO‐α2C cells, 3H‐rauwolscine whole cell binding; given as negative log KD; mean only (SEM in Table 4)
Would you mind telling me the reported Log KD of each entry?
One number for each entry.

// below: answered molecules
1) CCN1CCc2nc(N)oc2CC1 [BHT933] | −5.32
2) Cc1sc(C)c2c1CCC=C2c1cnc[nH]1.O=C(O)/C=C\C(=O)O [T‐CG 1000] | −6.75
3) C1=C(c2cnc[nH]2)c2ccsc2CC1 [RWJ52353] | −4.67

Moving on to another molecule below.
Input: State the measured Log KD (UniProt P18825) of CCc1cccc(CC)c1NC1=NCCN1 [ST‐91]
Output: −6.18

* * *

# target under test: human α2A‐adrenoceptor (Homo sapiens)
# test method notes: 3H‐rauwolscine whole cell binding in CHO‐α2A cells
# Design: expressed in transfected cells; host or cells: CHO-K1 with CRE-SPAP reporter
assay endpoint: IC50

Input: Name the recorded IC50 of the molecule listed here: COc1ccc(CC(C)NCC(O)c2ccc(O)c(NC=O)c2)cc1 (stereo not shown) [Formoterol]
Output: > 100 µM
